Molecular target: T1, recombinant human IL-23 (human, UniProt Q9NPF7 20-189; P29460 23-328)
T1 construct: also called hIL-23
T1 sequence 1: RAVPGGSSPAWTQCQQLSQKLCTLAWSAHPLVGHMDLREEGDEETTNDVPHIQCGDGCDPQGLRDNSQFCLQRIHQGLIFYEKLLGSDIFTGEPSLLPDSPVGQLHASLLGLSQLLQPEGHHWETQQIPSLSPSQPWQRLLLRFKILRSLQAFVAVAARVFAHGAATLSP
T1 sequence 2: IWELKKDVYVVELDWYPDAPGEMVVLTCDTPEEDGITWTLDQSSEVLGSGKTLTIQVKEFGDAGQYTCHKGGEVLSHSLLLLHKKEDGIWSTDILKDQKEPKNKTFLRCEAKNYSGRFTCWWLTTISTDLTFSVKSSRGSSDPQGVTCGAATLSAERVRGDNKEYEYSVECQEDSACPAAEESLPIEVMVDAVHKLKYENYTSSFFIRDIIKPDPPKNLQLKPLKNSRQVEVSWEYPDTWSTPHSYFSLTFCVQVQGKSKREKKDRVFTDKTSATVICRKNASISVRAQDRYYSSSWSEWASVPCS
Experiment: SPR (Biacore T100), tissue culture supernatant antibody captured on anti-human IgG, IL-23 analyte
If the reported koff equals or exceeds 0.0001 s⁻¹, assign class 1. If not, assign class 0.

Problem: Is reported koff greater than or equal to 0.0001 s⁻¹ here: A3M4 (antibody, human IgG1, kappa, V domains shown, Full length chains) VH: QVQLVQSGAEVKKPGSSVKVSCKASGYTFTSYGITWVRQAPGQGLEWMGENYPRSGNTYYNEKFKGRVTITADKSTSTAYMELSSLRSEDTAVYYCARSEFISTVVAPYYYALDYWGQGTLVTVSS VL: DIVMTQSPDSLAVSLGERATINCKASKKVTIFGSTSALHWYQQKPGQPPKLIYNGAKPESGVPDRFSGSGSGTDFTLTISSLQAEDVAVYYCLQNKEVPYTFGGGTKVEIKR
Result: class 1

Problem: Is reported koff greater than or equal to 0.0001 s⁻¹ here: A12.5M3 (antibody, V domains shown) VH: QVQLVQSGAEVKKPGSSVKVSCKASGYTFASYGITWVRQAPGQGLEWMGENYPRSGNTYYNEKFKGRVTITADKSTSTAYMELSSLRSEDTAVYYCARVEFISTVVAPYYYALDYWGQGTLVTVSS VL: DIVMTQSPDSLAVSLGERATINCKASKKVTIFGSTSALHWYQQKPGQPPKLIYNGAKLESGVPDRFSGSGSGTDFTLTISSLQAEDVAVYYCLQNKEVPYTFGGGTKVEIK
Result: class 1

Problem: Is reported koff greater than or equal to 0.0001 s⁻¹ here: A6M4 (antibody, human IgG1, kappa, V domains shown, Full length chains) VH: QVQLVQSGAEVKKPGSSVKVSCKASGYTFTSYGITWVRQAPGQGLEWMGENYPRSGNTYYNEKFKGRVTITADKSTSTAYMELSSLRSEDTAVYYCARVEFISTVVAPYYYALDYWGQGTLVTVSS VL: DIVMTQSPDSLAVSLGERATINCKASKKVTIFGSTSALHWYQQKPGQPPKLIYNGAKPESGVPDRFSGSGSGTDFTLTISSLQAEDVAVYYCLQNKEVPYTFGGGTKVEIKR
Result: class 1

Problem: Is reported koff greater than or equal to 0.0001 s⁻¹ here: A3M0 (antibody, human IgG1, kappa, V domains shown, Full length chains; also called humanized mAb A3M0) VH: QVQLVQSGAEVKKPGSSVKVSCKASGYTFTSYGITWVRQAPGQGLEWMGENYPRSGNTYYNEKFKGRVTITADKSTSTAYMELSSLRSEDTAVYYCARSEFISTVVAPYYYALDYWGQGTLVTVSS VL: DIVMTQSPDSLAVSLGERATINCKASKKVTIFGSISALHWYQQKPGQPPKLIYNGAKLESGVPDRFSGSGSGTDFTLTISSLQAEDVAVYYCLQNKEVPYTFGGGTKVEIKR
Result: class 1

Problem: Is reported koff greater than or equal to 0.0001 s⁻¹ here: A12M4 (antibody, V domains shown) VH: QVQLVQSGAEVKKPGSSVKVSCKASGYTFASYGITWVRQAPGQGLEWMGENYPRSGNTYYNEKFKGRVTITADKSTSTAYMELSSLRSEDTAMYYCARVEFISTVVAPYYYALDYWGQGTLVTVSS VL: DIVMTQSPDSLAVSLGERATINCKASKKVTIFGSTSALHWYQQKPGQPPKLIYNGAKPESGVPDRFSGSGSGTDFTLTISSLQAEDVAVYYCLQNKEVPYTFGGGTKVEIK
Result: class 1

Problem: Is reported koff greater than or equal to 0.0001 s⁻¹ here: A8M4 (antibody, V domains shown) VH: QVQLVQSGAEVKKPGSSVKVSCKASGYTFTSYGITWVRQAPGQGLEWMGEDYPRSGNTYYNEKFKGRVTITADKSTSTAYMELSSLRSEDTAVYYCARAEFISTVVAPYYYALDYWGQGTLVTVSS VL: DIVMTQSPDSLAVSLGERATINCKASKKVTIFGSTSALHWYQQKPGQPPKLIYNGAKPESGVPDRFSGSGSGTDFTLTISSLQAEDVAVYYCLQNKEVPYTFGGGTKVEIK
Result: class 0

Problem: Is reported koff greater than or equal to 0.0001 s⁻¹ here: A10M3 (antibody, human IgG1, kappa, V domains shown, Full length chains) VH: QVQLVQSGAEVKKPGSSVKVSCKASGYTFASYGITWVRQAPGQGLEWMGENYPRSGNTYYNEKFKGRVTITADKSTSTAYMELSSLRSEDTAMYYCARSEFISTVVAPYYYALDYWGQGTLVTVSS VL: DIVMTQSPDSLAVSLGERATINCKASKKVTIFGSTSALHWYQQKPGQPPKLIYNGAKLESGVPDRFSGSGSGTDFTLTISSLQAEDVAVYYCLQNKEVPYTFGGGTKVEIKR
Result: class 1

Problem: Is reported koff greater than or equal to 0.0001 s⁻¹ here: A10M4 (antibody, human IgG1, kappa, V domains shown, Full length chains) VH: QVQLVQSGAEVKKPGSSVKVSCKASGYTFASYGITWVRQAPGQGLEWMGENYPRSGNTYYNEKFKGRVTITADKSTSTAYMELSSLRSEDTAMYYCARSEFISTVVAPYYYALDYWGQGTLVTVSS VL: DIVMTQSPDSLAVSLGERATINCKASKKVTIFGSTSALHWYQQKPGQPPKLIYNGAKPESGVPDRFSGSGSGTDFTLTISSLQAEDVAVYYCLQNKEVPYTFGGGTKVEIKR
Result: class 1

Problem: Is reported koff greater than or equal to 0.0001 s⁻¹ here: A11.5M3 (antibody, V domains shown) VH: QVQLVQSGAEVKKPGSSVKVSCKASGYTFASYGITWVRQAPGQGLEWMGENYPRSGNTYYNEKFKGRVTITADKSTSTAYMELSSLRSEDTAVYYCARAEFISTVVAPYYYALDYWGQGTLVTVSS VL: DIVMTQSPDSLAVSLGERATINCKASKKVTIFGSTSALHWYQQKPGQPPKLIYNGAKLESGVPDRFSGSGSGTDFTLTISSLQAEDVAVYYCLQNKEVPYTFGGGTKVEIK
Result: class 0

Problem: Is reported koff greater than or equal to 0.0001 s⁻¹ here: A11M3 (antibody, V domains shown) VH: QVQLVQSGAEVKKPGSSVKVSCKASGYTFASYGITWVRQAPGQGLEWMGENYPRSGNTYYNEKFKGRVTITADKSTSTAYMELSSLRSEDTAMYYCARAEFISTVVAPYYYALDYWGQGTLVTVSS VL: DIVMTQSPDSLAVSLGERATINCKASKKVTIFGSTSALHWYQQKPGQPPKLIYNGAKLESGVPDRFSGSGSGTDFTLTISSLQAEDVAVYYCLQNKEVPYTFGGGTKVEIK
Result: class 0
